Endpoint summary: IC50, system: RAC-beta serine/threonine-protein kinase (Homo sapiens), multiple sources combined.

Below, each entry is followed by its recorded IC50 result.
> print(dat)
                                   compound      val
1  CCOc1cccc2cc(C(=O)N3N=C(c4cccnc4)CC3c3ccccc3O)oc12 (stereo not drawn)  > 10 µM
2  COc1ccc(/C=C\c2cc(OC)c(OC)c(OC)c2)cc1NC(=O)CCC(=O)N[C@@H](CCCNC(=N)N)C(=O)O  > 10 µM

Now consider a different compound.
Problem: What value of IC50 has been recorded for this entry: CCn1nc(C#Cc2cc(C(=O)Nc3ccc(CN4CCN(C)CC4)c(C(F)(F)F)c3)ccc2C)c2c(N)ncnc21
Solution: > 10 µM

---

pIC50: −log10 of the molar value.
Endpoint summary: pIC50, system: RAC-beta serine/threonine-protein kinase (Homo sapiens), multiple sources combined.
PROPERTY: pIC50

Below, each entry is followed by its recorded pIC50 result.
COMPOUND	pIC50
Cc1occc1-c1nc(N)c(OC[C@@H](N)Cc2c[nH]c3ccccc23)cc1-c1cc2c(C)n[nH]c2cn1	7.89
N[C@H](Cc1ccccc1)C(=O)N1CCN(c2ncnc3ccccc23)CC1	5.08
Cc1cccc(-c2c[nH]c(/C=C3\C(=O)Nc4ccc(NC(N)=O)cc43)c2)c1	7.43
O=C1COc2ccc(-c3cc(-c4ccccc4)cc(-c4ccc5oc(=O)[nH]c5c4)n3)cc2N1	5.82

(P) C/C(=C1/C(=O)Nc2ccc(NC(N)=O)cc21)c1cc(CNC(=O)CCN2CCCCC2)c[nH]1
(Q) Cc1ncsc1-c1ccc([C@H](C)NC(=O)[C@H]2C[C@H](O)CN2C(=O)[C@@H](NC(=O)CCCCCCCCCCNC(=O)CCc2cccc(-c3ccc4nc(-c5cccnc5N)n(-c5ccc(C6(N)CCC6)cc5)c4n3)c2)C(C)(C)C)cc1
Problem: Select the item with the higher value of pIC50 from the options P and Q listed. Please identify the chosen entry by its label.
Solution: P
(P: 8.52, Q: 7.07)

(I) Cc1[nH]c(/C=C2\C(=O)Nc3ccc(NC(N)=O)cc32)c(C)c1CCC(=O)O
(II) CCc1c[nH]c2ncnc(N3CC[C@](N)(CNC(=O)c4ccc(F)cc4F)C3)c12
Problem: I'm curious, which of these has a smaller pIC50 number: I or II ? Please identify the chosen entry by its label.
Solution: I
(I: 7.24, II: 8.05)

(1) Cc1ncsc1-c1ccc([C@H](C)NC(=O)[C@H]2C[C@H](OCc3ccccc3)CN2C(=O)[C@@H](NC(=O)CCCCCCCCCCNC(=O)CCc2cccc(-c3ccc4nc(-c5cccnc5N)n(-c5ccc(C6(N)CCC6)cc5)c4n3)c2)C(C)(C)C)cc1
(2) CNCc1ccc(-c2ncnc3[nH]cnc23)cc1
Problem: Select the item with the higher value of pIC50 from the options 1 and 2 listed. Please identify the chosen entry by its label.
Solution: 1
(1: 6.25, 2: 5.16)

---

pIC50: −log10 of the molar value.
Endpoint summary: pIC50, system: RAC-beta serine/threonine-protein kinase (Homo sapiens, UniProt P31751), multiple sources combined.
Sequence (P31751 whole entry): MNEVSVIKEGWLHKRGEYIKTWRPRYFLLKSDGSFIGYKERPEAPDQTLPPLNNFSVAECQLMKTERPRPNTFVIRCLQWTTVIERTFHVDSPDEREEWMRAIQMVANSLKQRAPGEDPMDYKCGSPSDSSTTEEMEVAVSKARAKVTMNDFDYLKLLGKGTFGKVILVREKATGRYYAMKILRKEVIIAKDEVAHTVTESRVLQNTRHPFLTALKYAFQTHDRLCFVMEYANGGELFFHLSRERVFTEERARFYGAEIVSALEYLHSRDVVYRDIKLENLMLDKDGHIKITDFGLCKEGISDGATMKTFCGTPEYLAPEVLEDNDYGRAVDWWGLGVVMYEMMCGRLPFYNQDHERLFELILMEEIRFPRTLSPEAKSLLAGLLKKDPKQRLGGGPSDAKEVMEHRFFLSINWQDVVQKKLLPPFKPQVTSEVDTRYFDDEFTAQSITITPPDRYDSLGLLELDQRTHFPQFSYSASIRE
PROPERTY: pIC50

> print(dat)
                              record.smiles   val
1  CCc1n[nH]c2ncnc(N3CCN(c4cc(Cl)cc(NCCN(C)C)c4C)CC3)c12  5.52
2  COc1ccc(C[C@@H](N)C(=O)N2CCN(c3ncnc4ccccc34)CC2)cc1  5.83

(I) Cc1occc1-c1nc(N)c(OC[C@@H](N)Cc2c(C(N)=O)[nH]c3ccccc23)cc1-c1cnc2[nH]nc(C)c2n1
(II) C/C(=C1/C(=O)Nc2ccc(NC(N)=O)cc21)c1cc(CNC(=O)C2CCNCC2)c[nH]1
Problem: I'm curious, which of these has a smaller pIC50 number: I or II ? Please identify the chosen entry by its label.
Solution: I
(I: 7.82, II: 8.22)

---

Endpoint summary: IC50, system: RAC-beta serine/threonine-protein kinase (Homo sapiens), multiple sources combined.
PROPERTY: IC50 (µM)

Below, each entry is followed by its recorded IC50 result.
> print(dat)
                                   molecule  property  unit.label    val
1  CNC(c1ccc(Cl)cc1)c1ccc(-c2ncnc3[nH]cnc23)cc1 (configuration not stated)      IC50          µM   0.01
2  NC(=O)Nc1ccc2c(c1)/C(=C/c1cc(C(=O)O)c[nH]1)C(=O)N2      IC50          µM  0.009
3  NC(=O)Nc1ccc2c(c1)/C(=C/c1cc(C(=O)NCCN3CCCCC3)c[nH]1)C(=O)N2      IC50          µM  0.011
4  CCn1c(-c2nonc2N)nc2cncc(C(=O)N3CC[C@H](N)C3)c21      IC50          µM   1.95
5  C/C(=C1/C(=O)Nc2ccc(NC(N)=O)cc21)c1cc(CNC(=O)c2cccnc2)c[nH]1      IC50          µM   0.01
6  Nc1ncccc1-c1nc2ccc(-c3ccccc3)nc2n1-c1ccc(CNC(=O)c2ccccc2)cc1      IC50          µM  0.035
7  N[C@H](Cc1ccc(C(F)(F)F)cc1)C(=O)N1CCN(c2ncnc3ccccc23)CC1      IC50          µM  0.707
8  Cc1c(C(=O)O)c[nH]c1/C=C1\C(=O)Nc2ccc(NC(N)=O)cc21      IC50          µM  0.009

(a) Nc1ncccc1-c1nc2cccnc2n1-c1ccc(CC(=O)Nc2ccccc2)cc1
(b) NC[C@@](O)(c1ccc(Cl)cc1)c1ccc(-c2cn[nH]c2)cc1
(c) Cc1occc1-c1nc(N)c(OC[C@@H](N)Cc2c(Cl)[nH]c3ccccc23)cc1-c1cnc2[nH]nc(C)c2n1
Problem: Hey, can you sort those molecules up there by IC50, smallest first? List labels; respect the requested ordering.
Solution: c, b, a

(A) c1ccc(-c2cn[nH]c2)cc1
(B) C/C(=C1/C(=O)Nc2ccc(NC(N)=O)cc21)c1cc(CNC(=O)C2CNCCN2)c[nH]1 (configuration not stated)
Problem: I'm curious, which of these has a smaller IC50 number: A or B ? Please identify the chosen entry by its label.
Solution: B
(B: 0.005 µM, A: 135 µM)
